- target.entity: Fatty-acid amide hydrolase 1 (Mus musculus, UniProt O08914)
- Sequence (O08914 whole entry): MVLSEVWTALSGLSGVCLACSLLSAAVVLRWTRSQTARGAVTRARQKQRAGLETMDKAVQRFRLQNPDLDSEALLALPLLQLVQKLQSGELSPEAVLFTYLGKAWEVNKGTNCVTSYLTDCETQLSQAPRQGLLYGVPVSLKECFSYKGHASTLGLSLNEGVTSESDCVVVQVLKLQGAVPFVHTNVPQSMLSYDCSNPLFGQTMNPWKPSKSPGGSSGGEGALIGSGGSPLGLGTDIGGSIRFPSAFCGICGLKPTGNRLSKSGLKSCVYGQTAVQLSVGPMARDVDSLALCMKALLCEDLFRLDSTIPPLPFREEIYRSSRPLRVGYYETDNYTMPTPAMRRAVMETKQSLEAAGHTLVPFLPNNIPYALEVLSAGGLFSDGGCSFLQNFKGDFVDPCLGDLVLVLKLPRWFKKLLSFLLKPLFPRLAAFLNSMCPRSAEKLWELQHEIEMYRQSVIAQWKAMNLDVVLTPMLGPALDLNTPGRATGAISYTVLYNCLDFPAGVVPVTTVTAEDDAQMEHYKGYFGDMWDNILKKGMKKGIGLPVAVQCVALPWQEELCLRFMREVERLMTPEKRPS
- method.notes: Inhibition of FAAH in mouse brain membrane
Catalogue of pIC50 readings, one per entry.
Please treat pIC50 as minus the base-10 logarithm of the molar concentration.

[[record]]
input_smiles = "O=C(Oc1ccc([N+](=O)[O-])cc1)N1CCN(Cc2ccc(-c3ccccc3)o2)CC1"
measured = 7.70


Item `O=C(Oc1ccc([N+](=O)[O-])cc1)N1CCN(Cc2ccccc2)CC1` with Fatty-acid amide hydrolase 1 (Mus musculus, UniProt O08914) - pIC50?
6.03

Same question for `O=C(Oc1ccc([N+](=O)[O-])cc1)N1CCN(Cc2ccc(-c3ccccc3)s2)CC1` please.
7.40

Do the same for `O=C(Oc1ccc([N+](=O)[O-])cc1)N1CCN(Cc2ccccc2-c2ccccc2)CC1` please
5.45

// query: `O=C(Oc1ccc([N+](=O)[O-])cc1)N1CCN(C2c3ccccc3Oc3ccccc32)CC1`
5.05

Lookup `O=C(Oc1ccc([N+](=O)[O-])cc1)N1CCC2(CC1)OC2(c1ccccc1)c1ccccc1`
5.23

====

- target.entity: Patatin-like phospholipase domain-containing protein 6 (Mus musculus)
- Sequence (Q3TRM4 whole entry, the tested form may be a part): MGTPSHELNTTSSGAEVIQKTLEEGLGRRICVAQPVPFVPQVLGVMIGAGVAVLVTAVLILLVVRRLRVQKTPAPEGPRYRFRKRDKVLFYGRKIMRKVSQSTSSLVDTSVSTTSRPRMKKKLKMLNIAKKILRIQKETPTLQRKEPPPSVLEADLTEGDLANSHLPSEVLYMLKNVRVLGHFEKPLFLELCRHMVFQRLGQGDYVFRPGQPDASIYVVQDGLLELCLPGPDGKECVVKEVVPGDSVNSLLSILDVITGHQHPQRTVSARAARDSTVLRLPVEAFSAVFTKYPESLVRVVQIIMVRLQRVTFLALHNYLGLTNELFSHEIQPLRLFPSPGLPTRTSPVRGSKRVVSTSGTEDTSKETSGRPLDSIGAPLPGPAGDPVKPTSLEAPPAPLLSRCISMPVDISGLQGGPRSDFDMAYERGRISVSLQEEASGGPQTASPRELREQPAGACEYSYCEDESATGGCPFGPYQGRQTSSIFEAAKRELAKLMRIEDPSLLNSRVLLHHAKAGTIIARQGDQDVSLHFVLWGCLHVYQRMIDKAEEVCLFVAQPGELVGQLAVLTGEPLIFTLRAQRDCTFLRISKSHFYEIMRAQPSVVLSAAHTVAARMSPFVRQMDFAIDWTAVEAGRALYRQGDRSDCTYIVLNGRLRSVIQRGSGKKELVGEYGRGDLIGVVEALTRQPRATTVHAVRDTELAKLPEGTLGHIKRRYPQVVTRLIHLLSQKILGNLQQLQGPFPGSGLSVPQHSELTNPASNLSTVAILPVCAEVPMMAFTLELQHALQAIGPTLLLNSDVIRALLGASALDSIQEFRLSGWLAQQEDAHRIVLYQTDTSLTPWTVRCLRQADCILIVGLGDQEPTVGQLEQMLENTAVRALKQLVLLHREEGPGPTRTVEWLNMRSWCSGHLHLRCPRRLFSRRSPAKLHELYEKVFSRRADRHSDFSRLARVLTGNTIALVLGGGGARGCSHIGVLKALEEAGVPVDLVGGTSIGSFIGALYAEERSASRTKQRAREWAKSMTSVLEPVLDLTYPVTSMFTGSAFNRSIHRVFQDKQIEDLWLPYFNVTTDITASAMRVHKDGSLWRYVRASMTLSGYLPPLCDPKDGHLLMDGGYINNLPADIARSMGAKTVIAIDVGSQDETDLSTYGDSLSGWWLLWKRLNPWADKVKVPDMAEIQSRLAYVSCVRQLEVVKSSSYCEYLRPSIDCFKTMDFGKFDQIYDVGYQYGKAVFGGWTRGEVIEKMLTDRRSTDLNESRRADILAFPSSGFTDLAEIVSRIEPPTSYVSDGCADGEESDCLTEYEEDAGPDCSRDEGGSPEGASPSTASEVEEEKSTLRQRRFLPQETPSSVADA
- method.notes: Inhibition of NTE in mouse brain membrane
The following molecules are shown together with reported pIC50 values.
// scale note: pIC50 = -log10(conc_M); give the bare number

[[record]]
input_smiles = "O=C(Oc1ccc([N+](=O)[O-])cc1)N1CCN(Cc2ccc(-c3ccccc3)s2)CC1"
target_entity = "Patatin-like phospholipase domain-containing protein 6 (Mus musculus)"
measured = 7.10

[[record]]
input_smiles = "COc1ccc(CN2CCN(C(=O)Oc3ccc([N+](=O)[O-])cc3)CC2)cc1"
target_entity = "Patatin-like phospholipase domain-containing protein 6 (Mus musculus)"
measured = 6.32

[[record]]
input_smiles = "O=C(Oc1ccc([N+](=O)[O-])cc1)N1CCN(Cc2ccc(-c3ccccc3OC(F)(F)F)o2)CC1"
target_entity = "Patatin-like phospholipase domain-containing protein 6 (Mus musculus)"
measured = 6.24


pIC50 lookup needed for `O=C(Oc1ccc([N+](=O)[O-])cc1)N1CCN(Cc2cccc(Oc3cccc(C(F)(F)F)c3)c2)CC1` , thanks.
4.84

// query: `O=C(Oc1ccc([N+](=O)[O-])cc1)N1CCN(Cc2ccc(-c3ccccc3)cc2)CC1`
5.37

Now consider `O=C(Oc1ccc([N+](=O)[O-])cc1)N1CCN(Cc2cc(Br)ccc2O)CC1` and answer again.
5.49

Would you mind doing `O=C(Oc1ccc([N+](=O)[O-])cc1)N1CCN(Cc2cccc(Oc3ccccn3)c2)CC1` as well?
5.90
